System: SARS-CoV-2 Delta USA/MD-HP05647/2021 (Lineage B.1.617.2)
ASSAY NOTES: microbe, parasite or virus in culture
Format: cell-based
CONDITION SET: Severe acute respiratory syndrome coronavirus 2, Vero C1008, 4 h; read-out: Vero E6 Delta CPE/EC50
Exercise: for every item that follows, state its recorded EC50.
Numbers only, in nM.

Consider the worked cases shown below.
                                     smiles   u  meas_value
0  CC(C)(C)[C@H](NC(=O)NC1(CS(=O)(=O)C(C)(C)C)CCCCC1)C(=O)N1C[C@H]2[C@@H]([C@H]1C(=O)N[C@H](C#N)C[C@@H]1CCNC1=O)C2(C)C  nM        2980
1  CC(C)(C)[C@H](NC(=O)C12CC(C1)C2)C(=O)N1C[C@H]2[C@@H]([C@H]1C(=O)N[C@H](C#N)C[C@@H]1CCNC1=O)C2(C)C  nM         377
2  CC(C)(C)[C@H](NS(=O)(=O)c1ccccc1)C(=O)N1C[C@H]2[C@@H]([C@H]1C(=O)N[C@H](C#N)C[C@@H]1CCNC1=O)C2(C)C  nM        10.7
3  Cc1cc(S(=O)(=O)N[C@H](C(=O)N2C[C@H]3[C@@H]([C@H]2C(=O)N[C@H](C#N)C[C@@H]2CCNC2=O)C3(C)C)C(C)(C)C)sc1Cl  nM        21.8
4  CC(C)(C)[C@H](NS(=O)(=O)c1cccs1)C(=O)N1C[C@H]2[C@@H]([C@H]1C(=O)N[C@H](C#N)C[C@@H]1CCNC1=O)C2(C)C  nM        36.8
5  CC(C)(C)[C@H](NS(=O)(=O)c1ccc(OC(F)(F)F)cc1)C(=O)N1C[C@H]2[C@@H]([C@H]1C(=O)N[C@H](C#N)C[C@@H]1CCNC1=O)C2(C)C  nM        61.8
6  Cc1ccc(S(=O)(=O)N[C@H](C(=O)N2C[C@H]3[C@@H]([C@H]2C(=O)N[C@H](C#N)C[C@@H]2CCNC2=O)C3(C)C)C(C)(C)C)s1  nM        23.5
7  CN(C)[C@@H]1C[C@@H](C(=O)N[C@H](C#N)C[C@@H]2CCNC2=O)N(C(=O)[C@@H](NC(=O)C(F)(F)F)C(C)(C)C)C1  nM        4000
8  CC(C)(C)[C@H](NC(=O)CS(C)(=O)=O)C(=O)N1C[C@H]2[C@@H]([C@H]1C(=O)N[C@H](C#N)C[C@@H]1CCNC1=O)C2(C)C  nM        1330
9  CC(C)(C)[C@H](NS(=O)(=O)c1ccc(F)cc1)C(=O)N1C[C@H]2[C@@H]([C@H]1C(=O)N[C@H](C#N)C[C@@H]1CCNC1=O)C2(C)C  nM        14.9

Could you tell me EC50 for each of these compounds? They are listed below.
1. CC(C)(C)[C@H](NS(=O)(=O)c1ccc(C(F)(F)F)cc1)C(=O)N1C[C@H]2[C@@H]([C@H]1C(=O)N[C@H](C#N)C[C@@H]1CCNC1=O)C2(C)C
2. CN(C)S(=O)(=O)N[C@H](C(=O)N1C[C@H]2[C@@H]([C@H]1C(=O)N[C@H](C#N)C[C@@H]1CCNC1=O)C2(C)C)C(C)(C)C
3. CC(C)(C)[C@H](NC(=O)c1cnc2[nH]ccc2c1)C(=O)N1C[C@H]2[C@@H]([C@H]1C(=O)N[C@H](C#N)C[C@@H]1CCNC1=O)C2(C)C

*A*
3.4
242
101000

Could you tell me EC50 for each of these compounds? They are listed below.
1. CC(C)(C)[C@H](NC(=O)CC#N)C(=O)N1C[C@H]2[C@@H]([C@H]1C(=O)N[C@H](C#N)C[C@@H]1CCNC1=O)C2(C)C
2. CC(C)(C)[C@H](NC(=O)C12CC(F)(C1)C2)C(=O)N1C[C@H]2[C@@H]([C@H]1C(=O)N[C@H](C#N)C[C@@H]1CCNC1=O)C2(C)C
3. CC(C)[C@H]1CC[C@H](C)C[C@@H]1OCC(=O)N[C@H](C(=O)N1C[C@H]2[C@@H]([C@H]1C(=O)N[C@H](C#N)C[C@@H]1CCNC1=O)C2(C)C)C(C)(C)C
4. CC(C)(C)[C@H](NS(=O)(=O)c1cccnc1)C(=O)N1C[C@H]2[C@@H]([C@H]1C(=O)N[C@H](C#N)C[C@@H]1CCNC1=O)C2(C)C

*A*
1. 940
2. 275
3. 2020
4. 372

*Q* State the recorded EC50 for this entry: CC(C)(C)[C@H](NS(=O)(=O)c1ccc(F)s1)C(=O)N1C[C@H]2[C@@H]([C@H]1C(=O)N[C@H](C#N)C[C@@H]1CCNC1=O)C2(C)C
*A* 16.6

These entries and their values trace back to patent US11760722B2.
